Numbers sourced from the MegaScale stability set (Tsuboyama et al. 2023).

B1: EEHEE_rd3_1049 (parent)
chain: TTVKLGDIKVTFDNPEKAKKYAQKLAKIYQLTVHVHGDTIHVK

variants of: B1; assay: folding stability dG (cDNA display proteolysis); higher = more stable; conditions: PBS, room temperature
Tick Criterion met if folding stability dG is 8 kJ/mol or greater. Tick Criterion not met if folding stability dG is less than 8 kJ/mol.

// below: answered variants
Textbook exercise: given the entry V35A , state whether its folding stability dG is greater than or equal to 8 kJ/mol.
Criterion not met

Textbook exercise: given the entry K20M , state whether its folding stability dG is greater than or equal to 8 kJ/mol.
Criterion met

Textbook exercise: given the entry G37S , state whether its folding stability dG is greater than or equal to 8 kJ/mol.
Criterion not met

Textbook exercise: given the entry H36W , state whether its folding stability dG is greater than or equal to 8 kJ/mol.
Criterion met

Textbook exercise: given the entry V10A , state whether its folding stability dG is greater than or equal to 8 kJ/mol.
Criterion not met

More entries:
Textbook exercise: given the entry D13Y , state whether its folding stability dG is greater than or equal to 8 kJ/mol.
Criterion not met

Textbook exercise: given the entry L31R , state whether its folding stability dG is greater than or equal to 8 kJ/mol.
Criterion not met

Textbook exercise: given the entry N14H , state whether its folding stability dG is greater than or equal to 8 kJ/mol.
Criterion not met

Textbook exercise: given the entry A22T , state whether its folding stability dG is greater than or equal to 8 kJ/mol.
Criterion not met

Textbook exercise: given the entry G6D , state whether its folding stability dG is greater than or equal to 8 kJ/mol.
Criterion not met

Textbook exercise: given the entry T39G , state whether its folding stability dG is greater than or equal to 8 kJ/mol.
Criterion not met

Textbook exercise: given the entry L25I , state whether its folding stability dG is greater than or equal to 8 kJ/mol.
Criterion not met

Textbook exercise: given the entry Y29S , state whether its folding stability dG is greater than or equal to 8 kJ/mol.
Criterion not met
